system: human umbilical vein endothelial cells (HUVECs); experiment: HUVEC proliferation assay (WST-1), 3-day, 2,000 cells per well; format: cell-based; details: 3-day assay, high/highest applied concentration (30 μg/ml where stated)
MEASURED QUANTITY: anti-proliferative activity in words at high peptide concentration

SEQUENCE: SKWSECSRTCGGGVKFQER [SEQ ID NO: 29, ADAMTS-18 Q8TE60: 596-614]
ASSAY RESULT: significantly increased

SEQUENCE: NGRKACLNPASPIVKKIIEKMLNS [SEQ ID NO: 102, GRO-α/CXCL1 AAP35526.1: 80-103]
ASSAY RESULT: significantly increased

----------
system: human umbilical vein endothelial cells (HUVECs); assay: HUVEC proliferation assay (WST-1), 2- and 4-day, 5,000 cells per well; assay type: cell-based; conditions: 4 days of peptide application; 0.01-10 μg/ml
Field: anti-proliferative activity (maximum or stated level), scaled so that TNP-470 = 100%. Provide a value for each of the sequences that follow.

Task: Recorded anti-proliferative activity (maximum or stated level), scaled so that TNP-470 = 100% for TEWSVCNSRCGRGYQKRTR [SEQ ID NO: 70, UNC5C AAH41156.1: 267-285] , please?
Output: 20%

Task: Moving on to SPWSPCSTSCGLGVSTRI [SEQ ID NO: 74, WISP-1 AAH74841.1: 221-238]
Output: ~20%

Task: Moving on to QPWGTCSESCGKGTQTRAR [SEQ ID NO: 44, Fibulin-6 CAC37630.1: 1688-1706]
Output: ~40%

Task: Moving on to GPWEPCSVTCSKGTRTRRR [SEQ ID NO: 49, Properdin AAP43692.1: 143-161]
Output: 20%

Reference source for all entries: patent US9187539B2
